# measured_on: T1, CD22-His tag (CD22 extracellular domain; Acrobiosystems Inc.) (UniProt P20273 20-687, limits assumed)
# T1 construct: extracellular domain; Bought reagent coated at 100 ng/well; also called CD22 peptide; not shown: His tag
# T1 sequence (looked up): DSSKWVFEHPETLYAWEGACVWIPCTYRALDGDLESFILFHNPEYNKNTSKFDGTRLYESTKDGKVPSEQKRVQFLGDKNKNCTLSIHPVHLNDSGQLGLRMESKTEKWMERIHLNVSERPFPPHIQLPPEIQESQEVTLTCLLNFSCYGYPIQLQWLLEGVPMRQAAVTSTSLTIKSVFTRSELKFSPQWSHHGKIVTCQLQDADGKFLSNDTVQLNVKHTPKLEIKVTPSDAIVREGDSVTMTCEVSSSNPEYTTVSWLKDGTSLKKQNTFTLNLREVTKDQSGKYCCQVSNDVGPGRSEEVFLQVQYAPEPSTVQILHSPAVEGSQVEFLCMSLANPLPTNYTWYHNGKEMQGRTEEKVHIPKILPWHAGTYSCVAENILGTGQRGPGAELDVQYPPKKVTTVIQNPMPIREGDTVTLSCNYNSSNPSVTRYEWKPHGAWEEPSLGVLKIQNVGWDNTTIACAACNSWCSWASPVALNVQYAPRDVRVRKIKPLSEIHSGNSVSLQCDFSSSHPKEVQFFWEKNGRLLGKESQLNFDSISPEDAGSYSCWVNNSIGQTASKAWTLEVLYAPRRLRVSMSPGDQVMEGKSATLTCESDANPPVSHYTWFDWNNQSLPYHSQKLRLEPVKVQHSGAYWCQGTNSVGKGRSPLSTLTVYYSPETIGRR
# protocol_summary: ELISA, CD22-His tag coated at 100 ng/well, primary antibody 0.4 ug/ml
readout_name: OD450 measurements (absorbance at 450 nm)
# number only, unit absorbance at 450 nm dropped from output

Quick note, OD450 measurements for 2A9 antibody (antibody, V domains shown, Monoclonal antibody from a hybridoma, detected in FACS with goat anti-mouse IgG) VH: EVQLEESGAELVKPGASVKMSCKAFGYTFTTYPIEWMKQNHGKSLEWIGNFHPYNDDTKYNEKFKGKAKLTVEKSSSTVYLELSRLTSDDSAVYYCARGDYYVSSWYFDVWGAGTTVTVSS VL: DIVMTQSQKFMSTSVGDRVSVTCKASQNVGTNVAWYQQKPGQSPKALIYSASYRYSGVPDRFTGSGSGTDFTLTISNVQSEDLAEYFCQQYNSYPLTFGSGTKLEIK landed at 2.93
